Measured values drawn from ChEMBL document CHEMBL3817728 for this set.

assayMethodText: Half life in Sprague-Dawley rat liver microsomes in presence of NADPH regenerating system by HPLC method
Format: ADME
readoutType: half-life (h)

{"columns": ["structureString", "endpointUnit", "obsValue"],
 "data": [
  ["COc1ccc2c(/C=C(\\C)C(=O)c3cc(OC)c(OC)c(OC)c3)c[nH]c2c1", "h", 2.62]
]}

---

assayMethodText: Metabolic stability in Sprague-Dawley rat liver microsomes assessed as compound remaining at 150 mins in presence of NADPH regenerating system by HPLC method
Format: ADME
conditions: read-out: Stability

{"columns": ["structureString", "endpointUnit", "remaining at 2.5 h"],
 "data": [
  ["COc1ccc2c(/C=C(\\C)C(=O)c3cc(OC)c(OC)c(OC)c3)c[nH]c2c1", "%", 54.1]
]}

---

Tested on: HeLa
assayMethodText: Cytotoxicity against human HeLa cells assessed as cell viability after 48 hrs by MTT assay
Assay type: functional, cell-based
Measured IC50 of individual entries
readoutType: IC50

{"columns": ["structureString", "readoutType", "obsValue"],
 "data": [
  ["COc1ccc2[nH]cc(/C=C/C(=O)c3cc(OC)c(OC)c(OC)c3)c2c1", "IC50", "> 1000 nM"],
  ["COc1ccc2c(/C=C(\\C)C(=O)c3cc(OC)c(OC)c(OC)c3)c[nH]c2c1", "IC50", "7 nM"],
  ["COc1ccc2c(/C=C/C(=O)c3ccc(OC)c4c3OC(C)(C)C=C4)c[nH]c2c1", "IC50", "49 nM"],
  ["COc1ccc2c(/C=C(\\C)C(=O)c3cc(OC)c(OC)c(OC)c3)cn(P(=O)([O-])[O-])c2c1.[Na+].[Na+]", "IC50", "78 nM"],
  ["COc1cc(C(=O)/C(C)=C/c2cn(C)c3cccc(OC)c23)cc(OC)c1OC", "IC50", "> 1000 nM"]
]}

---

assayMethodText: Cytotoxicity against human A2780/TAX cells assessed as growth inhibition after 48 hrs by MTT assay
Assay type: functional, cell-based
pIC50: −log10 of the molar value.
Measured pIC50 of individual entries

{"columns": ["structureString", "pIC50"],
 "data": [
  ["COc1cccc2c1C(=O)c1c(O)c3c(c(O)c1C2=O)C[C@@](O)(C(=O)CO)C[C@@H]3O[C@H]1C[C@H](N)[C@H](O)[C@H](C)O1", 5.48],
  ["COc1ccc(/C=C\\c2cc(OC)c(OC)c(OC)c2)cc1O", 7.24],
  ["CC(=O)O[C@H]1C(=O)[C@@]2(C)[C@H]([C@H](OC(=O)c3ccccc3)[C@]3(O)C[C@H](OC(=O)[C@H](O)[C@@H](NC(=O)c4ccccc4)c4ccccc4)C(C)=C1C3(C)C)[C@]1(OC(C)=O)CO[C@@H]1C[C@@H]2O", 5.25],
  ["CC[C@]1(O)C[C@H]2CN(CCc3c([nH]c4ccccc34)[C@@](C(=O)OC)(c3cc4c(cc3OC)N(C=O)[C@H]3[C@@](O)(C(=O)OC)[C@H](OC(C)=O)[C@]5(CC)C=CCN6CC[C@]43[C@@H]65)C2)C1", 6.77],
  ["COc1ccc2c(/C=C(\\C)C(=O)c3cc(OC)c(OC)c(OC)c3)c[nH]c2c1", 6.91]
]}
